Target: T1, cynomolgus monkey KLK5 (cynomolgus monkey, UniProt Q9Y337 67-293 (human entry))
T1 construct: also called cyno KLK5
T1 chain: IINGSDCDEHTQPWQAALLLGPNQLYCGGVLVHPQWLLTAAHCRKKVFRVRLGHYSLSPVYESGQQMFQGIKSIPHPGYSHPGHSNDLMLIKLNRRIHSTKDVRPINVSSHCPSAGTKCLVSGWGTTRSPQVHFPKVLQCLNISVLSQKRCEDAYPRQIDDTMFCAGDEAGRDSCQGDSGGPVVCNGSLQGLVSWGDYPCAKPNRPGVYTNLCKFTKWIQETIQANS
Assay: SPR, one-armed monovalent antibody
pKd: −log10 of the molar value.
property measured: pKd

1. OA.hu.9H5.H14L4.G98Q.H89V (antibody, V domains shown, One-armed (OA) monovalent anti-KLK5 antibody with a human IgG1 Fc, with Q38E/Q39K; constant regions and dummy Fc chain not specified) VH: EVQLVESGGGLIQPGGSLRLSCAASGFSLSSYGVSWVRKAPGKGLEYVGFIGSGGFAYYASWAKSRFTISRDNSKNTLYLQMNSLRAEDTAVYYCARDDVQGGKSLDIWGQGTLVTVSS VL: DIQMTQSPSSLSASVGDRVTITCQASQSISSYLSWYQEKPGKAPKLLIYSASTLASGVPSRFSGSGSGTDFTLTISSLQPEDFATYYCVQDYTSSNVDNTFGGGTKVEIK | 11.01

Reference source for all entries: patent US20240084042A1
